We begin with a simple list: items and their reported inhibition at 1 ppm.
Tested on: pathogenic bacteria causing bacterial blight in rice
PROTOCOL SUMMARY: whole plant or invertebrate
Assay type: cell-based, xanthomonas
CONDITION DESCRIPTION: read-out: inhibitory rate

LINE NOTATION	MEASURED TARGET	inhibition at 1 ppm
COCCOC(=O)c1cn(C2CC2)c2cc(F)ccc2c1=O	pathogenic bacteria causing bacterial blight in rice	≥ 90%
CCOc1cc2c(cc1F)c(=O)c(C(=O)OCCO)cn2C1CC1	pathogenic bacteria causing bacterial blight in rice	≥ 90%
CCOCCOC(=O)c1cn(C2CC2)c2cc(Cl)c(F)cc2c1=O	pathogenic bacteria causing bacterial blight in rice	≥ 90%
CCOc1cc2c(cc1F)c(=O)c(C(=O)OCCOC1CCCC1)cn2C1CC1	pathogenic bacteria causing bacterial blight in rice	≥ 90%
O=C(OCCCO)c1cn(C2CC2)c2cc(F)ccc2c1=O	pathogenic bacteria causing bacterial blight in rice	≥ 90%
COCCCOC(=O)c1cn(C2CC2)c2cc(F)ccc2c1=O	pathogenic bacteria causing bacterial blight in rice	≥ 90%
CCOCCOC(=O)c1cn(C2CC2)c2cc(SCC)c(F)cc2c1=O	pathogenic bacteria causing bacterial blight in rice	≥ 90%
COCCOC(=O)c1cn(C2CC2)c2cc(SCC(F)(F)F)c(F)cc2c1=O	pathogenic bacteria causing bacterial blight in rice	≥ 90%
COCCCOC(=O)c1cn(C2CC2)c2cc(OC)c(F)cc2c1=O	pathogenic bacteria causing bacterial blight in rice	≥ 90%
O=C(OCCCO)c1cn(C2CC2)c2cc(Cl)c(F)cc2c1=O	pathogenic bacteria causing bacterial blight in rice	≥ 90%
O=C(OCCCCO)c1cn(C2CC2)c2cc(Cl)c(F)cc2c1=O	pathogenic bacteria causing bacterial blight in rice	≥ 80%
CCOc1cc2c(cc1F)c(=O)c(C(=O)OCCOC(C)C)cn2C1CC1	pathogenic bacteria causing bacterial blight in rice	≥ 90%
CCNc1cc2c(cc1F)c(=O)c(C(=O)OCCO)cn2C1CC1	pathogenic bacteria causing bacterial blight in rice	≥ 90%
COc1cc2c(cc1F)c(=O)c(C(=O)OCCCO)cn2C1CC1	pathogenic bacteria causing bacterial blight in rice	≥ 90%
O=C(OCCO)c1cn(C2CC2)c2cc(F)ccc2c1=O	pathogenic bacteria causing bacterial blight in rice	≥ 80%
CC(C)(C)Oc1cc2c(cc1F)c(=O)c(C(=O)OCCO)cn2C1CC1	pathogenic bacteria causing bacterial blight in rice	≥ 90%
CNc1cc2c(cc1F)c(=O)c(C(=O)OCCOC)cn2C1CC1	pathogenic bacteria causing bacterial blight in rice	≥ 90%
COCCOC(=O)c1cn(C2CC2)c2cc(N3CCCCC3)c(F)cc2c1=O	pathogenic bacteria causing bacterial blight in rice	≥ 90%
CCOc1cc2c(cc1F)c(=O)c(C(=O)OCCCOC)cn2C1CC1	pathogenic bacteria causing bacterial blight in rice	≥ 90%
CCOc1cc2c(cc1F)c(=O)c(C(=O)OCCCO)cn2C1CC1	pathogenic bacteria causing bacterial blight in rice	≥ 90%
O=C(OCCO)c1cn(C2CC2)c2cc(N3CCCCC3)c(F)cc2c1=O	pathogenic bacteria causing bacterial blight in rice	≥ 90%
O=C(OCCO)c1cn(C2CC2)c2cc(OCC(F)(F)F)ccc2c1=O	pathogenic bacteria causing bacterial blight in rice	≥ 80%
COCCCCOC(=O)c1cn(C2CC2)c2cc(Cl)c(F)cc2c1=O	pathogenic bacteria causing bacterial blight in rice	≥ 90%
CCSc1cc2c(cc1F)c(=O)c(C(=O)OCCOC)cn2C1CC1	pathogenic bacteria causing bacterial blight in rice	≥ 90%
COCOC(=O)c1cn(C2CC2)c2ccc(F)cc2c1=O	pathogenic bacteria causing bacterial blight in rice	≥ 80%
CCOCCOC(=O)c1cn(C2CC2)c2cc(OC)c(F)cc2c1=O	pathogenic bacteria causing bacterial blight in rice	≥ 90%
COc1cc2c(cc1F)c(=O)c(C(=O)OCCO)cn2C1CC1	pathogenic bacteria causing bacterial blight in rice	≥ 90%
COCCOC(=O)c1cn(C2CC2)c2cc(OCC(F)(F)F)c(F)cc2c1=O	pathogenic bacteria causing bacterial blight in rice	≥ 90%
CCOCCOC(=O)c1cn(C2CC2)c2cc(OCC(F)(F)F)c(F)cc2c1=O	pathogenic bacteria causing bacterial blight in rice	≥ 90%
COCCOC(=O)c1cn(C2CC2)c2cc(OCC(F)(F)F)ccc2c1=O	pathogenic bacteria causing bacterial blight in rice	≥ 80%
CSc1cc2c(cc1F)c(=O)c(C(=O)OCCO)cn2C1CC1	pathogenic bacteria causing bacterial blight in rice	≥ 90%
O=C(OCCCO)c1cn(C2CC2)c2cc(OCC(F)(F)F)c(F)cc2c1=O	pathogenic bacteria causing bacterial blight in rice	≥ 90%
O=C(OCCCO)c1cn(C2CC2)c2ccc(F)cc2c1=O	pathogenic bacteria causing bacterial blight in rice	≥ 80%
CCSc1cc2c(cc1F)c(=O)c(C(=O)OCCO)cn2C1CC1	pathogenic bacteria causing bacterial blight in rice	≥ 90%
O=C(OCCO)c1cn(C2CC2)c2ccc(Cl)cc2c1=O	pathogenic bacteria causing bacterial blight in rice	≥ 80%
COCCOC(=O)c1cn(C2CC2)c2cc(OC)c(F)cc2c1=O	pathogenic bacteria causing bacterial blight in rice	≥ 90%
COCCOC(=O)c1cn(C2CC2)c2cc(OC)ccc2c1=O	pathogenic bacteria causing bacterial blight in rice	≥ 80%
